These entries and their values trace back to ChEMBL document CHEMBL1132088.

- System: Rattus norvegicus
- experiment-summary: In vivo calcemic activity expressed as relative activity for Intestinal calcium transport (ICA) in vitamin D deficient rats
Kindly state relative activity for each of the entries shown.
One number for each entry, in %.

Some solved cases for reference:
Look up relative activity for this molecule: `C=C1/C(=C\C=C2/CCC[C@]3(C)[C@@H]([C@H](C)[C@H](C)CCC(C)(C)O)CC[C@@H]23)C[C@@H](O)C[C@@H]1O`
25

Look up relative activity for this molecule: `C=C1/C(=C\C=C2/CCC[C@]3(C)[C@@H]([C@@H](C)[C@H](C)CCC(C)(C)O)CC[C@@H]23)C[C@@H](O)C[C@@H]1O`
51

Look up relative activity for this molecule: `C=C1/C(=C\C=C2/CCC[C@]3(C)[C@@H]([C@H](C)[C@@H](C)CCC(C)(C)O)CC[C@@H]23)C[C@@H](O)C[C@@H]1O`
50

Okay, next one:
Look up relative activity for this molecule: `C=C1/C(=C\C=C2/CCC[C@]3(C)[C@@H]([C@H](C)CCCC(C)(C)O)CC[C@@H]23)C[C@@H](O)C[C@@H]1O`
100
